From: ChEMBL document CHEMBL1149671

target: UniProt:P00742; assay: Inhibition of human factor 10a in presence of tripeptide substrate at 25 degC
Sequence (P00742 41-179 limits assumed): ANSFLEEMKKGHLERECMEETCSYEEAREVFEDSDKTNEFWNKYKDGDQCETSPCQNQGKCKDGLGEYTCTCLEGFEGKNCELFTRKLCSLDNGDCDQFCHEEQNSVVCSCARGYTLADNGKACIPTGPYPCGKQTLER
Sequence (P00742 235-488 limits assumed): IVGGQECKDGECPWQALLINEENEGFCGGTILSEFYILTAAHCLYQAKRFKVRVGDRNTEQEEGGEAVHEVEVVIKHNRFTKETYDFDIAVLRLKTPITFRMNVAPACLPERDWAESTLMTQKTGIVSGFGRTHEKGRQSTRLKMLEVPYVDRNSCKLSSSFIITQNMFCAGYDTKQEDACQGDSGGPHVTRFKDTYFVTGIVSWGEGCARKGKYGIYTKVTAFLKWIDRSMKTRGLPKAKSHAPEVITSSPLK
pKi: −log10 of the molar value.
reported property: pKi

>>> readout_number("CCOC(=O)N1C[C@H](NC(=O)c2ccc(-n3ccccc3=O)cc2)[C@H](NC(=O)c2ccc(Cl)s2)C1")
9.14

====

// values below are reported half-life
assay: Half life in dog at 0.5 mg/kg, iv; format: ADME, organism-based, Canis lupus familiaris; parameters: dose 0.5 mg/kg, route intravenous; settings: in vivo
reported property: half-life (min)

>>> readout_number("CCS(=O)(=O)N1C[C@H](NC(=O)c2ccc(-n3ccccc3=O)cc2)[C@H](NC(=O)c2ccc(Cl)s2)C1")
42
>>> readout_number("CC(=O)N1C[C@H](NC(=O)c2ccc(-n3ccccc3=O)cc2)[C@H](NC(=O)c2ccc(Cl)s2)C1")
48
>>> readout_number("O=C(N[C@H]1COC[C@H]1NC(=O)c1ccc(Cl)s1)c1ccc(-n2ccccc2=O)cc1")
72
>>> readout_number("O=C(N[C@H]1CCC[C@H]1NC(=O)c1ccc(Cl)s1)c1ccc(-n2ccccc2=O)cc1")
42
>>> readout_number("CCOC(=O)N1C[C@H](NC(=O)c2ccc(-n3ccccc3=O)cc2)[C@H](NC(=O)c2ccc(Cl)s2)C1")
84

====

assay: Permeability across Caco-2 cells; format: ADME, cell-based; conditions: human, read-out: permeability
reported property: Papp

>>> result("O=C(N[C@H]1CCC[C@H]1NC(=O)c1ccc(Cl)s1)c1ccc(-n2ccccc2=O)cc1")
"9.2 ×10⁻⁶ cm/s"
>>> result("CCS(=O)(=O)N1C[C@H](NC(=O)c2ccc(-n3ccccc3=O)cc2)[C@H](NC(=O)c2ccc(Cl)s2)C1")
"< 1.5 ×10⁻⁶ cm/s"
>>> result("CC(=O)N1C[C@H](NC(=O)c2ccc(-n3ccccc3=O)cc2)[C@H](NC(=O)c2ccc(Cl)s2)C1")
"< 1.5 ×10⁻⁶ cm/s"
>>> result("CCOC(=O)N1C[C@H](NC(=O)c2ccc(-n3ccccc3=O)cc2)[C@H](NC(=O)c2ccc(Cl)s2)C1")
"2.5 ×10⁻⁶ cm/s"

====

molecular target: Plasma kallikrein (Homo sapiens, UniProt P03952); assay: Inhibition of human plasma kallikrein; assay type: cell-free
Sequence (P03952 20-390 limits assumed): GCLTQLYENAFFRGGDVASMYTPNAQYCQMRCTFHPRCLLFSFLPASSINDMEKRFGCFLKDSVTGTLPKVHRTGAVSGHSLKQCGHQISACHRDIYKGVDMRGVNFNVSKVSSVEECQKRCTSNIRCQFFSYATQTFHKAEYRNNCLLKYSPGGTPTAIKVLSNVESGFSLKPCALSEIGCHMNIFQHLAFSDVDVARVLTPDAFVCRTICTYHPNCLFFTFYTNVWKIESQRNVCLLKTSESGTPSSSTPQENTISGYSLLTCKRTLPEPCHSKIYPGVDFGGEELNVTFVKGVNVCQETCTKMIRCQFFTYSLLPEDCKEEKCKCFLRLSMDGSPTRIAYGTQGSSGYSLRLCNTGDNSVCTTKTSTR
Sequence (P03952 391-638 limits assumed): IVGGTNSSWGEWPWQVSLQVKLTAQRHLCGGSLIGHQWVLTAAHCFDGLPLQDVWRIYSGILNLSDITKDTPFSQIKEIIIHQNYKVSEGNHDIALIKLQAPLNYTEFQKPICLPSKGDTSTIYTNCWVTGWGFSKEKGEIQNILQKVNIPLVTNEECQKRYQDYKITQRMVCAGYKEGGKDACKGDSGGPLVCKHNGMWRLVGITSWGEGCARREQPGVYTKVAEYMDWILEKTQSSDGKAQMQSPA
// reported Ki per item
reported property: Ki

>>> result("CC(=O)N1C[C@H](NC(=O)c2ccc(-n3ccccc3=O)cc2)[C@H](NC(=O)c2ccc(Cl)s2)C1")
"> 6 µM"
>>> result("O=C(N[C@H]1C[C@H](C(=O)O)C[C@H]1NC(=O)c1ccc(Cl)s1)c1ccc(-n2ccccc2=O)cc1")
"> 6 µM"
>>> result("CCS(=O)(=O)N1C[C@H](NC(=O)c2ccc(-n3ccccc3=O)cc2)[C@H](NC(=O)c2ccc(Cl)s2)C1")
"> 10.8 µM"
>>> result("O=C(N[C@H]1C[C@H](CO)C[C@H]1NC(=O)c1ccc(Cl)s1)c1ccc(-n2ccccc2=O)cc1")
"> 10.8 µM"
>>> result("CCOC(=O)N1C[C@H](NC(=O)c2ccc(-n3ccccc3=O)cc2)[C@H](NC(=O)c2ccc(Cl)s2)C1")
"> 6 µM"

====

experiment: Cytotoxicity against HEK cells; assay type: cell-based; conditions: Homo sapiens, HEK293
reported property: IC50

>>> result("CC(C)(C)C(=O)N1C[C@H](NC(=O)c2ccc(-n3ccccc3=O)cc2)[C@H](NC(=O)c2ccc(Cl)s2)C1")
"> 100 µM"
>>> result("CC(=O)N1C[C@H](NC(=O)c2ccc(-n3ccccc3=O)cc2)[C@H](NC(=O)c2ccc(Cl)s2)C1")
"> 100 µM"
>>> result("O=C(N[C@H]1CNC[C@H]1NC(=O)c1ccc(Cl)s1)c1ccc(-n2ccccc2=O)cc1")
"> 100 µM"
>>> result("CNC(=O)N1C[C@H](NC(=O)c2ccc(-n3ccccc3=O)cc2)[C@H](NC(=O)c2ccc(Cl)s2)C1")
"> 100 µM"
>>> result("CCC(=O)N1C[C@H](NC(=O)c2ccc(-n3ccccc3=O)cc2)[C@H](NC(=O)c2ccc(Cl)s2)C1")
"> 100 µM"
>>> result("COCCOC(=O)N1C[C@H](NC(=O)c2ccc(-n3ccccc3=O)cc2)[C@H](NC(=O)c2ccc(Cl)s2)C1")
"> 100 µM"
>>> result("CC(C)S(=O)(=O)N1C[C@H](NC(=O)c2ccc(-n3ccccc3=O)cc2)[C@H](NC(=O)c2ccc(Cl)s2)C1")
"> 100 µM"
>>> result("CN(C)C(=O)N1C[C@H](NC(=O)c2ccc(-n3ccccc3=O)cc2)[C@H](NC(=O)c2ccc(Cl)s2)C1")
"> 100 µM"
>>> result("O=C(N[C@H]1CN(C(=O)OCC2c3ccccc3-c3ccccc32)C[C@H]1NC(=O)c1ccc2c(Cl)c[nH]c2c1)c1ccc(-n2ccccc2=O)cc1")
"> 100 µM"
>>> result("O=C(N[C@H]1CN(C(=O)c2ccccc2)C[C@H]1NC(=O)c1ccc(Cl)s1)c1ccc(-n2ccccc2=O)cc1")
"> 100 µM"
>>> result("O=C(N[C@H]1CN(C(=O)C2CC2)C[C@H]1NC(=O)c1ccc(Cl)s1)c1ccc(-n2ccccc2=O)cc1")
"> 100 µM"
>>> result("COC(=O)N1C[C@H](NC(=O)c2ccc(-n3ccccc3=O)cc2)[C@H](NC(=O)c2ccc(Cl)s2)C1")
"> 100 µM"
>>> result("COCC(=O)N1C[C@H](NC(=O)c2ccc(-n3ccccc3=O)cc2)[C@H](NC(=O)c2ccc(Cl)s2)C1")
"> 100 µM"
>>> result("CC(C)C(=O)N1C[C@H](NC(=O)c2ccc(-n3ccccc3=O)cc2)[C@H](NC(=O)c2ccc(Cl)s2)C1")
"> 100 µM"
>>> result("O=C(N[C@H]1CN(C(=O)N2CCCC2)C[C@H]1NC(=O)c1ccc(Cl)s1)c1ccc(-n2ccccc2=O)cc1")
"> 100 µM"
>>> result("CCOC(=O)N1C[C@H](NC(=O)c2ccc(-n3ccccc3=O)cc2)[C@H](NC(=O)c2ccc(Cl)s2)C1")
"> 100 µM"
>>> result("CS(=O)(=O)N1C[C@H](NC(=O)c2ccc(-n3ccccc3=O)cc2)[C@H](NC(=O)c2ccc(Cl)s2)C1")
"> 100 µM"
>>> result("CCS(=O)(=O)N1C[C@H](NC(=O)c2ccc(-n3ccccc3=O)cc2)[C@H](NC(=O)c2ccc(Cl)s2)C1")
"> 100 µM"
